- Test system: Hs-578T
- method: NCI tumour cell line growth inhibition, 48 h
The source made the active and inactive calls. Cut-off read from the data, not from the text of the source: active = GI50 up to about 1.1 µM and inactive = higher. Where a SMILES comes first, the peptide text is derived from it. [ ]: non-standard residue; d: D form. The star is where a group is joined. ξ: configuration not given here. ξF = NC(Cc1ccccc1)C(=O)O; Cbz = O=C(OCc1ccccc1)*; Aib = CC(C)(N)C(=O)O; NHNH2 = NN*
measure-name: GI50

As a guide, the following entries are already answered.
molecule: COc1ccc(C(=O)O[C@H]2CC[C@@]3(C)[C@@H]4CC[C@H]5[C@]6(O)C[C@H](O)[C@@]7(O)[C@@H](CN8C[C@@H](C)CC[C@H]8[C@@]7(C)O)[C@]6(O)C[C@@]53OC24O)cc1OC [VERATRIDINE]
target-under-test: Hs-578T
measured-value: > 100 µM (inactive)
//
molecule: CC(C)(NC(=O)OCc1ccccc1)C(=O)NC(Cc1ccccc1)C(=O)NN (centres undefined) (Cbz-[Aib]-[ξF]-NHNH2)
target-under-test: Hs-578T
measured-value: > 100 µM (inactive)

According to the records, this molecule COc1cc(O)c2c(O)c3c(c4c2c1[C@]1(C4)C(C)=CCCC1(C)C)[C@H](O)[C@@]1(O)CC(O)=C(C(N)=O)C(=O)[C@@]1(O)C3=O displays GI50 of 0.147 µM (active)

GI50 measured on CC/C=C\C=C/C(=O)N/C=C/CCC = > 100 µM (inactive)
